- experimentalProtocol: cytotoxicity: viability of mock-infected MT-4 host cells (MTT method)
- Type: cell-based
- cond: human, mt-4 cells, read-out: CD50: Cytotoxic concentration that causes death of cells by 50%
Parameter: CC50. Scope: all listed entries.
Respond with the bare value in µg/mL.

1) CC#CCn1c(Cc2cc(C)cc(C)c2)c(CC)c(=O)[nH]c1=O : 8.65
2) CCc1c(C(=O)c2cc(C)cc(C)c2)n(C/C=C/c2ccccc2)c(=O)[nH]c1=O : 5.97
3) CCc1c(Cc2cc(C)cc(C)c2)n(C/C=C/C(=O)OC)c(=O)[nH]c1=O : 12.5

Next up:
Lookup: Query: CC50; subject: Cc1cc(C)cc(Oc2c(C(C)C)c(=O)[nH]c(=O)n2CC#Cc2ccccc2)c1
Found: 7.6

====

Parameter: EC50. Scope: all listed entries.
- Test system: HIV
- experimentalProtocol: inhibition of HIV-induced cytopathic effect in MT-4 cells (MTT method)
- Assay type: cell-based
- cond: Human immunodeficiency virus 1, MT4; HIV-infected MT-4 cells; 1000 CCID50; 4 or 5 day incubation at 37° C.; MTT method; read-out: ED50: Effective concentration for the inhibition of the proliferation of HIV by 50%

Consider the following illustrative entries.
1) Cc1cc(C)cc(C(=O)c2c(C(C)C)c(=O)[nH]c(=O)n2C/C=C/CN=[N+]=[N-])c1 [Example 74] : < 0.009 µg/mL
2) C/C=C/Cn1c(C(=O)c2cc(C)cc(C)c2)c(CC)c(=O)[nH]c1=O [Example 44] : < 0.01 µg/mL
3) C/C=C/Cn1c(C(=O)c2cc(C)cc(C)c2)c(C(C)C)c(=O)[nH]c1=O [Example 51] : < 0.01 µg/mL
4) CCc1c(Cc2cc(C)cc(C)c2)n(CC#Cc2ccccc2)c(=O)[nH]c1=O [Example 40] : < 0.009 µg/mL

Lookup: Query: EC50; subject: CCc1c(C(=O)c2cc(C)cc(C)c2)n(C/C=C/COC)c(=O)[nH]c1=O [Example 82]
Found: < 0.32 µg/mL

Lookup: Query: EC50; subject: CCc1c(C(=O)c2cc(C)cc(C)c2)n(C/C=C/CN=[N+]=[N-])c(=O)[nH]c1=O [Example 79]
Found: < 0.009 µg/mL

Lookup: Query: EC50; subject: CCc1c(Sc2cc(C)cc(C)c2)n(C/C=C/C(=O)OC)c(=O)[nH]c1=O [Example 21]
Found: < 0.32 µg/mL

Lookup: Query: EC50; subject: C#CCn1c(Oc2cc(C)cc(C)c2)c(CC)c(=O)[nH]c1=O [Example 60]
Found: < 0.62 µg/mL

====

Parameter: EC50. Scope: all listed entries.
- Test system: HIV
- experimentalProtocol: inhibition of HIV-induced cytopathic effect in MT-4 cells (MTT method)
- Assay type: cell-based
- cond: Human immunodeficiency virus 1, MT4; HIV-infected MT-4 cells; 1000 CCID50; 4 or 5 day incubation at 37° C.; MTT method; read-out: ED50: Effective concentration for the inhibition of the proliferation of HIV by 50%

Consider the following illustrative entries.
1) CCc1c(Cc2cc(C)cc(C)c2)n(C/C=C/c2ccccc2)c(=O)[nH]c1=O [Example 35] : < 0.009 µg/mL
2) Cc1cc(C)cc(Sc2c(C(C)C)c(=O)[nH]c(=O)n2C/C=C/c2ccccc2)c1 [Example 29] : < 0.023 µg/mL
3) CCc1c(Sc2cc(C)cc(C)c2)n(C/C=C/CCl)c(=O)[nH]c1=O [Example 22] : < 0.36 µg/mL
4) CCc1c(Cc2cc(C)cc(C)c2)n(CC=C(C)C)c(=O)[nH]c1=O [Example 36] : < 0.33 µg/mL

Lookup: Query: EC50; subject: CCOC/C=C\Cn1c(Sc2ccccc2)c(CC)c(=O)[nH]c1=O [Example 16]
Found: 2.78 µg/mL

Lookup: Query: EC50; subject: CCc1c(C(=O)c2cc(C)cc(C)c2)n(CC=C(C)C)c(=O)[nH]c1=O [Example 7]
Found: < 0.33 µg/mL

Lookup: Query: EC50; subject: CCc1c(C(=O)c2cc(C)cc(C)c2)n(C/C=C\c2ccccc2)c(=O)[nH]c1=O [Example 69]
Found: < 0.032 µg/mL

Lookup: Query: EC50; subject: CCc1c(Oc2cc(C)cc(C)c2)n(C/C=C/C(=O)OC)c(=O)[nH]c1=O [Example 63]
Found: < 0.032 µg/mL

The origin of these recorded values is patent US5747500A.
